The values you see were collected from paper PMC4774911.

- test-target: SIK2 (Homo sapiens, UniProt Q9H0K1)
- Sequence (Q9H0K1 whole entry): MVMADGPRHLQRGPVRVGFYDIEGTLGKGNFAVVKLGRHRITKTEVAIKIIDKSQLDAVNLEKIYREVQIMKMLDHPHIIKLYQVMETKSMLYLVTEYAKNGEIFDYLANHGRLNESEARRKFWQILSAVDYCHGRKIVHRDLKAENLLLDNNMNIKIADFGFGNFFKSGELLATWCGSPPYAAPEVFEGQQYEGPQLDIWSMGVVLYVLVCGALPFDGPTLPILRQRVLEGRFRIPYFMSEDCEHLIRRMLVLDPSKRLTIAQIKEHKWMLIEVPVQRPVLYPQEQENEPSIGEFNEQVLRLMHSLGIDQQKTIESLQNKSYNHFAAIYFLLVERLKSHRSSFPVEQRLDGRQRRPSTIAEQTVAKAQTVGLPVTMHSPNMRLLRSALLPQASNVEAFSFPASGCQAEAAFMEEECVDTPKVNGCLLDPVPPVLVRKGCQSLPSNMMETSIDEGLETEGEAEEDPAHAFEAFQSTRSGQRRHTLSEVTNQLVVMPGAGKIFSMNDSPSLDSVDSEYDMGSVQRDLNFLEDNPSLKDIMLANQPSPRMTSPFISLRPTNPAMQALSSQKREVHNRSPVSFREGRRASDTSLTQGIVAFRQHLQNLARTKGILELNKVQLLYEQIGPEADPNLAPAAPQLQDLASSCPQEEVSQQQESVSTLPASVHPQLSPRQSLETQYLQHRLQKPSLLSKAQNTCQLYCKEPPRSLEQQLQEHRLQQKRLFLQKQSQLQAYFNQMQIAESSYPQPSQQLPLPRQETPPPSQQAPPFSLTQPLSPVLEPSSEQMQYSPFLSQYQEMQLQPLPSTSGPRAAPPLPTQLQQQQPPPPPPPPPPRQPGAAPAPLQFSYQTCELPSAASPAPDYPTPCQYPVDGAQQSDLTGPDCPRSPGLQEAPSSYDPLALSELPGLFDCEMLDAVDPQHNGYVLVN
assay-metric: IC50

Q: What IC50 value was documented for this compound, CN(C)CC(O)COc1ccc(Nc2ncc([N+](=O)[O-])c(Nc3ccccc3O)n2)cc1.O=C(O)C(F)(F)F (stereo not shown) ?
A: > 20 µM

----------
Kindly supply the reported pIC50 values for the records listed here.
- test-target: MKNK1 (Homo sapiens, UniProt Q9BUB5)
pIC50: −log10 of the molar value.

1. Cl.NCC1(c2nc(-c3ccc(Cl)c(O)c3)c(-c3ccncc3)[nH]2)CCCCC1: < 4.70

Now consider a different compound.
Q: What pIC50 value was documented for this compound, CN(C)CC(O)COc1ccc(Nc2ncc([N+](=O)[O-])c(Nc3ccccc3O)n2)cc1.O=C(O)C(F)(F)F (centres unmarked) ?
A: < 4.70

----------
- test-target: YES1 (Homo sapiens, UniProt P07947)
- assay-overview: biochemical
assay-metric: IC50

Q: What IC50 value was documented for this molecule, CN(C)CC(O)COc1ccc(Nc2ncc([N+](=O)[O-])c(Nc3ccccc3O)n2)cc1.O=C(O)C(F)(F)F (stereo not shown) ?
A: > 20 µM

----------
- test-target: CAMKK2 (Homo sapiens)
assay-metric: IC50

Q: API: value(readout= IC50, system= CAMKK2 (Homo sapiens), query= Cl.NCC1(c2nc(-c3ccc(Cl)c(O)c3)c(-c3ccncc3)[nH]2)CCCCC1 )
A: > 20 µM

----------
- test-target: CSNK1A1 (Homo sapiens)
- Sequence (P48729 whole entry): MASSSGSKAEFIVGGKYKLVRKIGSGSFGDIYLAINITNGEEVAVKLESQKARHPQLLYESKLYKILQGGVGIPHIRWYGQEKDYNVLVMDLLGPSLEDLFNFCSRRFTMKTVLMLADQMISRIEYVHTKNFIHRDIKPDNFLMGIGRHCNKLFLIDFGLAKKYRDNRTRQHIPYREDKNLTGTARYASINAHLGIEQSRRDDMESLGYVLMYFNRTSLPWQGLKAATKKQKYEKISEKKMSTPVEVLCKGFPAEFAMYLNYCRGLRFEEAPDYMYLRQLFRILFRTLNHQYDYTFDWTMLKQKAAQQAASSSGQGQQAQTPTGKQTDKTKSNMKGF
- assay-overview: biochemical
- condition-summary: read-out: KDapp
assay-metric: Kd (µM)
Give bare numbers, in µM.

Q: What Kd value was documented for this compound, CN(C)CC(O)COc1ccc(Nc2ncc([N+](=O)[O-])c(Nc3ccccc3O)n2)cc1.O=C(O)C(F)(F)F (stereo not shown) ?
A: 7.65

----------
- test-target: CDK10 (Homo sapiens)
assay-metric: pIC50
Answers are plain numbers, as −log10 of the molar value.

Q: What pIC50 value was documented for this molecule, CN(C)CC(O)COc1ccc(Nc2ncc([N+](=O)[O-])c(Nc3ccccc3O)n2)cc1.O=C(O)C(F)(F)F (centres unmarked) ?
A: 5.80

----------
A short record of IC50 observed with MAP3K1 (Homo sapiens, UniProt Q13233) follows.
Sequence (Q13233 whole entry): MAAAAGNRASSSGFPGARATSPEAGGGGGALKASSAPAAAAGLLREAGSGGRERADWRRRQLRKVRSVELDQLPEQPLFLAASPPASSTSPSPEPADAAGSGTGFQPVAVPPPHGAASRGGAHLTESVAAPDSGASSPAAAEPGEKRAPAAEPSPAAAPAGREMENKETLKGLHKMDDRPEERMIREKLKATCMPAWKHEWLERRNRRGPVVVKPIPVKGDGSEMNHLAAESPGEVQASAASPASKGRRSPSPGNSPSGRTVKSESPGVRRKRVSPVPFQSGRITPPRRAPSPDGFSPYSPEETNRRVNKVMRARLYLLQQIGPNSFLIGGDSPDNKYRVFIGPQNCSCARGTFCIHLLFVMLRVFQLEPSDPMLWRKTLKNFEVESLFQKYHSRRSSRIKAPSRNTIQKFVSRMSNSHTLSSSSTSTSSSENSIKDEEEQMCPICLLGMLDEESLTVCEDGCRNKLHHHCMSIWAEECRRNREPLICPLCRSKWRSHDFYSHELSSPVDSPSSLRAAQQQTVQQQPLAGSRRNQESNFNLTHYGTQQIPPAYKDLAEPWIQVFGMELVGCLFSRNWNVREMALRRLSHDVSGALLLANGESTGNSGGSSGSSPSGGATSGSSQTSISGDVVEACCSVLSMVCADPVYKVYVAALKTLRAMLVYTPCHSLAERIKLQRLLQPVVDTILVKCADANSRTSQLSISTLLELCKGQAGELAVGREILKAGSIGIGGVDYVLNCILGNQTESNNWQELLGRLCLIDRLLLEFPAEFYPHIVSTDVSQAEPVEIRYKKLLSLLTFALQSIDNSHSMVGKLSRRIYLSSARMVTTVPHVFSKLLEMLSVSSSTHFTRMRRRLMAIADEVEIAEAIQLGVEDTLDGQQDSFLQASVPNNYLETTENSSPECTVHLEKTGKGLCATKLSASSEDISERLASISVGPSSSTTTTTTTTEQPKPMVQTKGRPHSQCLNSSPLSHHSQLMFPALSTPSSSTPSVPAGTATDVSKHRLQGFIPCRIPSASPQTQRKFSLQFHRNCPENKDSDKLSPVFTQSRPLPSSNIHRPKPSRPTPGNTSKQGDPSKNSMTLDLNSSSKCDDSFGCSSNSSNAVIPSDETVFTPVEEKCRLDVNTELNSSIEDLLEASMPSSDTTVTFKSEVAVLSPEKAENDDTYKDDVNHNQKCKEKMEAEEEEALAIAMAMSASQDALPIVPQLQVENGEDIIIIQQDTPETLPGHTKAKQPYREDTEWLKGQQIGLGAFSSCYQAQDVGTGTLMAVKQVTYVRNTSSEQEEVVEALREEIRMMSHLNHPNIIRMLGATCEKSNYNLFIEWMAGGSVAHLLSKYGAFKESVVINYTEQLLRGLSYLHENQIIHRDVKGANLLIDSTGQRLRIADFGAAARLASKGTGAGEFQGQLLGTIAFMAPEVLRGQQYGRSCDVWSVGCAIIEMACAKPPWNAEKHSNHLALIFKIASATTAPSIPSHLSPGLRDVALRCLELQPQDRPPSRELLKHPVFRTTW

As a guide, the following entries are already answered.
1) Cl.NCC1(c2nc(-c3ccc(Cl)c(O)c3)c(-c3ccncc3)[nH]2)CCCCC1: > 20 µM
2) CN1CCN(c2ccc(Nc3ncc(C#N)c(Nc4ccccc4C(N)=O)n3)cc2)CC1.Cl: 1.6 µM

Q: What IC50 value was documented for this molecule, CN(C)CC(O)COc1ccc(Nc2ncc([N+](=O)[O-])c(Nc3ccccc3O)n2)cc1.O=C(O)C(F)(F)F (stereo not drawn) ?
A: > 20 µM

----------
Kindly supply the reported IC50 values for the records listed here.
- test-target: Plasmodium falciparum calcium-dependent protein kinase 1 (CDPK1) (Plasmodium falciparum)
- Construct: 6-Histidine (N); made in house
- assay-overview: CDPK1 Kinase-Glo ATP-consumption screen and dose-response
- Type: biochemical
- condition-summary: hits below 1 uM; read-out: CDPK1 IC50
Answers are plain numbers, in nM.

As a guide, the following entries are already answered.
1) CC(C)(CNCc1ccc(F)c(F)c1)c1nc(-c2ccnc(N)n2)c(-c2ccc(Cl)c(O)c2)[nH]1.Cl: 469
2) Cl.Oc1cc(-c2nc(-c3ccccc3)[nH]c2-c2ccncc2)ccc1Cl: 975
3) CC(C)(CNC(=O)C1CCN(CCOc2ccc(Cl)cc2)CC1)c1nc(-c2ccc(Cl)c(O)c2)c(-c2ccncc2)[nH]1.Cl: 471

Parameter requested: IC50. Apply to each item below.
1. CC(C)(CNC(=O)C1CCN(CCOCc2ccccc2)CC1)c1nc(-c2ccc(Cl)c(O)c2)c(-c2ccncc2)[nH]1.Cl
2. CCOC(=O)c1cccc(NC(=O)Nc2cccc(-c3ncc(OCCCN)c4c3nc(-c3nonc3N)n4CC)c2)c1.O=C(O)C(F)(F)F
3. CNC(=O)c1ccccc1Nc1nc(Nc2ccc(N3CCN(C)CC3)nc2)ncc1C.Cl

A:
1: 734; 2: 294; 3: 45

----------
- test-target: CSNK1D (Homo sapiens, UniProt P48730)
- Sequence (P48730 whole entry): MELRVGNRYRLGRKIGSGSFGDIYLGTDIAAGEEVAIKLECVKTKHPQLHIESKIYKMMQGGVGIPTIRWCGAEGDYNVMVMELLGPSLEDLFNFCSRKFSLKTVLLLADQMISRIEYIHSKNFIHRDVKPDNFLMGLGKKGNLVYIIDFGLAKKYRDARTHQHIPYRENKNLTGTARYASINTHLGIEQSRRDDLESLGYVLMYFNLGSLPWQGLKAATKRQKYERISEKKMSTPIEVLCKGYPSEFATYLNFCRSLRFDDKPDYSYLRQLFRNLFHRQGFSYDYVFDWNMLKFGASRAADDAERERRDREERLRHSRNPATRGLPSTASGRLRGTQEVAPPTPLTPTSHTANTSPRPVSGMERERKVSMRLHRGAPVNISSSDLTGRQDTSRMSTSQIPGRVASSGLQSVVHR
- assay-overview: biochemical
- condition-summary: read-out: KDapp
assay-metric: pKd
Answers are plain numbers, as −log10 of the molar value.

Q: What pKd value was documented for this compound, CN1CCN(c2ccc(Nc3ncc(C#N)c(Nc4ccccc4C(N)=O)n3)cc2)CC1.Cl [TCMDC-134116] ?
A: 5.94

----------
- test-target: CSNK2A1 (Homo sapiens)
- assay-overview: biochemical
assay-metric: IC50 (nM)
Answers are plain numbers, in nM.

Q: What IC50 value was documented for this molecule, CN(C)CC(O)COc1ccc(Nc2ncc([N+](=O)[O-])c(Nc3ccccc3O)n2)cc1.O=C(O)C(F)(F)F (centres unmarked) [TCMDC-141399] ?
A: 92

----------
Kindly supply the reported IC50 values for the records listed here.
- test-target: MINK1 (Homo sapiens)
- Sequence (Q8N4C8 whole entry): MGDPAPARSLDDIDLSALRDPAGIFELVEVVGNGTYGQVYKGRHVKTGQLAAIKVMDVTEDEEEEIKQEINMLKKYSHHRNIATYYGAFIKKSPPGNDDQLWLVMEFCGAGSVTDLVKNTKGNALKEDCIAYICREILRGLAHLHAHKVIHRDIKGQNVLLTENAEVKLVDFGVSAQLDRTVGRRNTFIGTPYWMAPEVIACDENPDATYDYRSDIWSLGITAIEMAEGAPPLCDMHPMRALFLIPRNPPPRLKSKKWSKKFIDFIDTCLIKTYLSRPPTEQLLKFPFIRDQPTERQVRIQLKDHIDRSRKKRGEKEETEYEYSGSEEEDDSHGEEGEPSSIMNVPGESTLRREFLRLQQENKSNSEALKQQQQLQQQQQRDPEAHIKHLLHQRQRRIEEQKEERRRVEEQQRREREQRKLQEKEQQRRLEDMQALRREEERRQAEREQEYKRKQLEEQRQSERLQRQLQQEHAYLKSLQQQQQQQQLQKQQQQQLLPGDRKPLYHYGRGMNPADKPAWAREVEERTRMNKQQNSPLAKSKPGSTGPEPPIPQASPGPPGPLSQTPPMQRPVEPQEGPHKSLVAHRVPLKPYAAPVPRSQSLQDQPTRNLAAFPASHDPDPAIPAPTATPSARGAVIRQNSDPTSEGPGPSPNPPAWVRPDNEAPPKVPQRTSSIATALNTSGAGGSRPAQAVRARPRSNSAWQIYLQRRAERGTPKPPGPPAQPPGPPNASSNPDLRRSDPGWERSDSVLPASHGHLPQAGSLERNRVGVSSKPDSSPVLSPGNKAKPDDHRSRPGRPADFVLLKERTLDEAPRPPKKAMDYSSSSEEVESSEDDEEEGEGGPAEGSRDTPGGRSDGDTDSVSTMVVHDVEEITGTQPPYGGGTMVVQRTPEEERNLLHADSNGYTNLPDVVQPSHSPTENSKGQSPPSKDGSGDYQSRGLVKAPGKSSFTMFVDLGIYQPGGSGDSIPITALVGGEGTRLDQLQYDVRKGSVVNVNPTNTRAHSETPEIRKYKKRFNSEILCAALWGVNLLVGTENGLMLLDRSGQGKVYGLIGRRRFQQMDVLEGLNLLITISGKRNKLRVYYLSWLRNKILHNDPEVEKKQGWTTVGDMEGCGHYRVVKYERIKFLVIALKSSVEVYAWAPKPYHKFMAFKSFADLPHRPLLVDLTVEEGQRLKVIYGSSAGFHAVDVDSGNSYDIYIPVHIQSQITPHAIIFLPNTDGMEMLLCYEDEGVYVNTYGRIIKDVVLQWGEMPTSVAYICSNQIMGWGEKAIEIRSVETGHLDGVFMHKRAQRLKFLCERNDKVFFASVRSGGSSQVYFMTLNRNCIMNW
Give bare numbers, in µM.

1. CN1CCN(c2ccc(Nc3ncc(C#N)c(Nc4ccccc4C(N)=O)n3)cc2)CC1.Cl [TCMDC-134116]: 0.29

Now consider a different molecule.
Q: What IC50 value was documented for this molecule, Cl.NCC1(c2nc(-c3ccc(Cl)c(O)c3)c(-c3ccncc3)[nH]2)CCCCC1 [TCMDC-141154] ?
A: 1.4

----------
- test-target: PRKACA (Homo sapiens)
- assay-overview: biochemical
- Parameters: endogenous in cells; host or cells: K562 cell extract; species or system K562 (extract); replicate k of n = 2 (each experiment ID is one independent experiment; two experiment IDs per compound)
- condition-summary: read-out: KDapp
assay-metric: pKd
Give bare numbers, as −log10 of the molar value.

Q: What pKd value was documented for this compound, CN1CCN(c2ccc(Nc3ncc(C#N)c(Nc4ccccc4C(N)=O)n3)cc2)CC1.Cl ?
A: 5.88

----------
A short record of pIC50 observed with PRKD3 (Homo sapiens) follows.
Give bare numbers, as −log10 of the molar value.

1. Cl.NCC1(c2nc(-c3ccc(Cl)c(O)c3)c(-c3ccncc3)[nH]2)CCCCC1 [TCMDC-141154]: 5.06

Now consider a different compound.
Q: What pIC50 value was documented for this compound, CN1CCN(c2ccc(Nc3ncc(C#N)c(Nc4ccccc4C(N)=O)n3)cc2)CC1.Cl [TCMDC-134116] ?
A: 6.43

----------
- test-target: Plasmodium falciparum calcium-dependent protein kinase 1 (CDPK1) (Plasmodium falciparum, UniProt P62344)
- Construct: 6-Histidine (N); made in house
- Sequence (P62344 whole entry): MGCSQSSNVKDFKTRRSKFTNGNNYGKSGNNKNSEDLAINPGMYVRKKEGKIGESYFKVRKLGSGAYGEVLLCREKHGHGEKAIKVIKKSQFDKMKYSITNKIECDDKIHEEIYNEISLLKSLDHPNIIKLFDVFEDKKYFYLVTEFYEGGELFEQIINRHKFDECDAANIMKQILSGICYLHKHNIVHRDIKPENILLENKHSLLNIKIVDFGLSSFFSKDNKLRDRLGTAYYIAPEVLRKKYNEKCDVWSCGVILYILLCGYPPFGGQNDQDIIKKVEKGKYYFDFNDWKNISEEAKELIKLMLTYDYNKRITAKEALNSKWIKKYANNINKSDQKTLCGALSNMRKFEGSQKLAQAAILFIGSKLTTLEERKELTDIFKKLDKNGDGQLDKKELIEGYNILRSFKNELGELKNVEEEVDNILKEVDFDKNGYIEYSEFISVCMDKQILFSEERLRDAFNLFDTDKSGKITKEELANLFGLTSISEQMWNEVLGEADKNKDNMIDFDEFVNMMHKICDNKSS
- assay-overview: CDPK1 Kinase-Glo ATP-consumption screen and dose-response
- Assay type: biochemical
- condition-summary: hits below 1 uM; read-out: CDPK1 IC50
Kindly supply the reported IC50 values for the records listed here.
Numbers only, in nM.

1. COc1ccc(Nc2ncc3c(-c4cccc(NC(=O)Cc5cccc(O)c5)c4)c[nH]c3n2)cc1OC [TCMDC-135247]: 312
2. CS(=O)(=O)c1cccc(-c2cnc3[nH]cc(-c4cccc(CCN)c4)c3c2)c1.O=C(O)C(F)(F)F [TCMDC-136307]: 44
3. COc1ccc(-c2cnc3ccc(N4CCCC4)nn23)cc1OC.O=CO [TCMDC-134177]: 310
4. O=C(NCCN1CCCCC1)c1cccc(Nc2nccc(Nc3ccc(Oc4ccccc4)cc3)n2)c1 [TCMDC-138603]: 250

Parameter requested: IC50. Apply to each item below.
1. CC(C)(CN)c1cc(-c2ccc(Cl)c(O)c2)c(-c2ccncc2)o1.Cl [TCMDC-141334]
2. CN(C)Cc1ccc(-c2ccc3c(Nc4ccc(Cl)cc4F)ccnc3c2)o1 [TCMDC-138389]

A:
13
185

Parameter requested: IC50. Apply to each item below.
1. CCNC(=O)Nc1ccc(-c2cnc(N)c(-c3nc4ccc(OC)cc4[nH]3)c2)cc1 [TCMDC-135321]
2. CN(C)CCNCc1nc(-c2ccc3c(Nc4ccc(Oc5ccccc5)cc4)ccnc3c2)cs1 [TCMDC-138410]

A:
1: 145; 2: 887

----------
- test-target: NEK3 (Homo sapiens, UniProt P51956)
- Sequence (P51956 1-506): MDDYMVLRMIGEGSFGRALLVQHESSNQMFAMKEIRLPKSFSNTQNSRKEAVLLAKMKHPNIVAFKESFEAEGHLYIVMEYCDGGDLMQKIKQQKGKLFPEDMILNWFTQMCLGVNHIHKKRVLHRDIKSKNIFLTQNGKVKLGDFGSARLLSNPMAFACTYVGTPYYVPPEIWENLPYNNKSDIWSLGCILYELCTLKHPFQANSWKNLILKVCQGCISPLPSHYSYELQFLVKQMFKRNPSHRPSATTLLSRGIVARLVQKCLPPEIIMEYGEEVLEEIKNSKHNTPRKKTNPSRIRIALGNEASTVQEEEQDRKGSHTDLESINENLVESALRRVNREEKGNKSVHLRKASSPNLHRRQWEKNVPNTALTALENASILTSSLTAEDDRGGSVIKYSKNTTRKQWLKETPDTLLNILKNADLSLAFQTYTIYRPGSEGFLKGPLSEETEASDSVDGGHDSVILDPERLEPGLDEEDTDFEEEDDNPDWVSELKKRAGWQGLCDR
- assay-overview: biochemical
- condition-summary: read-out: KDapp
assay-metric: pKd
Answers are plain numbers, as −log10 of the molar value.

Q: What pKd value was documented for this molecule, CN1CCN(c2ccc(Nc3ncc(C#N)c(Nc4ccccc4C(N)=O)n3)cc2)CC1.Cl ?
A: 6.14
